# protocolNotes: Serum T3, T4, Triac and Tetrac levels in infused rats
# Type: in vivo
# conditionSet: male, SIVZ, rat, intraperitoneal, T4 infusion 0.5 nmol/day/100 g BW, mean ± SEM, read-out: Serum T4
readoutLabel: concentration at 13 days
# output: numeric value plus its unit

Record summary for N[C@@H](Cc1cc(I)c(Oc2cc(I)c(O)c(I)c2)c(I)c1)C(=O)O [T4, L-thyroxine, reference compound] : reported concentration at 13 days = 43.1 nM

----------
# protocolNotes: Serum T3, T4, Triac and Tetrac levels in infused rats
# Assay type: in vivo
# conditionSet: male, SIVZ, rat, intraperitoneal, T4 infusion 13.5 nmol/day/100 g BW, mean ± SEM, read-out: Serum T4
readoutLabel: concentration at 13 days (µM)
Write down the numeric answer in µM and omit the unit.

Record summary for N[C@@H](Cc1cc(I)c(Oc2cc(I)c(O)c(I)c2)c(I)c1)C(=O)O [T4, L-thyroxine, reference compound] : reported concentration at 13 days = 0.353
